Hi there, I'd appreciate the recorded viability, T/C for every entry that follows.
Test system: LG0703-F948-PDC complex spheroid viability
Experiment: Anticancer human tumor LG0703-F948-PDC patient-derived lung adenocarcinoma cell line growth inhibition [RAS]
Conditions: second compound 0.03 µM; first compound 0.0316 µM; active compounds read low
Give bare numbers, in %.

>  <molecule>
C=CC(=O)N1CCN(c2nc(OCC3CCCN3C)nc3c(F)c(-c4nc(N)cc(C)c4C(F)(F)F)c(Cl)cc23)C(C)C1 (stereo not given) + CCn1c(-c2cccnc2C(C)OC)c2c3cc(ccc31)N1CCOC(CC(NC(=O)C(C(C)C)N(C)C(=O)C3(F)CCN(C(=O)C#CC(C)(C)N(C)C)CC3)C(=O)N3CCCC(N3)C(=O)OCC(C)(C)C2)C1

>  <viability, T/C / %>
78.1

$$$$
>  <molecule>
CC1(O)CCCC1n1c(=O)c(C(F)F)cc2cnc(NC3CCN(S(C)(=O)=O)CC3)nc21 (stereo not given) + CCn1c(-c2cc(N3CCN(C)CC3)cnc2C(C)OC)c2c3cc(ccc31)-c1csc(n1)CC(NC(=O)C1CC1C)C(=O)N1CCCC(N1)C(=O)OCC(C)(C)C2

>  <viability, T/C / %>
16.4

$$$$
>  <molecule>
C=CC(=O)N1CCN(c2nc(OCC3CCCN3C)nc3c(F)c(-c4nc(N)cc(C)c4C(F)(F)F)c(Cl)cc23)C(C)C1 (stereo not given) + CCn1c(-c2cc(N3CCN(C)CC3)cnc2C(C)OC)c2c3cc(ccc31)-c1csc(n1)CC(NC(=O)C1CC1C)C(=O)N1CCCC(N1)C(=O)OCC(C)(C)C2

>  <viability, T/C / %>
16.2

$$$$
>  <molecule>
CC(C)n1nc(-c2ccc3oc(N)nc3c2)c2c(N)ncnc21 + CCn1c(-c2cccnc2C(C)OC)c2c3cc(ccc31)N1CCOC(CC(NC(=O)C(C(C)C)N(C)C(=O)C3(F)CCN(C(=O)C#CC(C)(C)N(C)C)CC3)C(=O)N3CCCC(N3)C(=O)OCC(C)(C)C2)C1

>  <viability, T/C / %>
23.9

$$$$

Turning now to a further molecule:
For Nc1ccn(C2OC(CO)C(O)C2(F)F)c(=O)n1 (stereo not given) + CCn1c(-c2cc(N3CCN(C)CC3)cnc2C(C)OC)c2c3cc(ccc31)-c1csc(n1)CC(NC(=O)C1CC1C)C(=O)N1CCCC(N1)C(=O)OCC(C)(C)C2 , what is its reported viability, T/C?
15.6

====

Tested on: LG0703-F948-PDC complex spheroid viability
Experiment: Anticancer human tumor LG0703-F948-PDC cell line growth inhibition [RAS];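 note: spheroids exposed to agents for 7 days; 100% = DMSO vehicle wells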
Conditions: second compound 0.000949 µM; first compound 0.000949 µM; active compounds read low
experimental.readout: viability, T/C

// worked examples, viability, T/C included
>  <compound>
CCc1c2c(nc3ccc(O)cc13)-c1cc3c(c(=O)n1C2)COC(=O)[C@]3(O)CC + CCn1c(-c2cc(N3CCN(C)CC3)cnc2C(C)OC)c2c3cc(ccc31)-c1csc(n1)CC(NC(=O)C1CC1C)C(=O)N1CCCC(N1)C(=O)OCC(C)(C)C2

>  <target.entity>
LG0703-F948-PDC complex spheroid viability

>  <viability, T/C>
74.3%

$$$$
>  <compound>
CCc1c2c(nc3ccc(O)cc13)-c1cc3c(c(=O)n1C2)COC(=O)[C@]3(O)CC + CCn1c(-c2cccnc2C(C)OC)c2c3cc(ccc31)N1CCOC(CC(NC(=O)C(C(C)C)N(C)C(=O)C3(F)CCN(C(=O)C#CC(C)(C)N(C)C)CC3)C(=O)N3CCCC(N3)C(=O)OCC(C)(C)C2)C1

>  <target.entity>
LG0703-F948-PDC complex spheroid viability

>  <viability, T/C>
123%

$$$$
>  <compound>
CC1(C)CCC(Nc2ncc(C(F)(F)F)c(-c3c[nH]c4c(P(C)(C)=O)c(C#N)ccc34)n2)CN1 (centres undefined) + CCn1c(-c2cccnc2C(C)OC)c2c3cc(ccc31)N1CCOC(CC(NC(=O)C(C(C)C)N(C)C(=O)C3(F)CCN(C(=O)C#CC(C)(C)N(C)C)CC3)C(=O)N3CCCC(N3)C(=O)OCC(C)(C)C2)C1

>  <target.entity>
LG0703-F948-PDC complex spheroid viability

>  <viability, T/C>
83.4%

$$$$

Turning now to a further compound:
For CC1(C)CCC(Nc2ncc(C(F)(F)F)c(-c3c[nH]c4c(P(C)(C)=O)c(C#N)ccc34)n2)CN1 (centres undefined) + CCn1c(-c2cc(N3CCN(C)CC3)cnc2C(C)OC)c2c3cc(ccc31)-c1csc(n1)CC(NC(=O)C1CC1C)C(=O)N1CCCC(N1)C(=O)OCC(C)(C)C2 , what is its reported viability, T/C?
70.9%
